Data origin, for the record: patent US12570642B2

Recorded EC50, one value per entry.
MEASURED ON: UniProt P43220
Sequence (P43220 24-463): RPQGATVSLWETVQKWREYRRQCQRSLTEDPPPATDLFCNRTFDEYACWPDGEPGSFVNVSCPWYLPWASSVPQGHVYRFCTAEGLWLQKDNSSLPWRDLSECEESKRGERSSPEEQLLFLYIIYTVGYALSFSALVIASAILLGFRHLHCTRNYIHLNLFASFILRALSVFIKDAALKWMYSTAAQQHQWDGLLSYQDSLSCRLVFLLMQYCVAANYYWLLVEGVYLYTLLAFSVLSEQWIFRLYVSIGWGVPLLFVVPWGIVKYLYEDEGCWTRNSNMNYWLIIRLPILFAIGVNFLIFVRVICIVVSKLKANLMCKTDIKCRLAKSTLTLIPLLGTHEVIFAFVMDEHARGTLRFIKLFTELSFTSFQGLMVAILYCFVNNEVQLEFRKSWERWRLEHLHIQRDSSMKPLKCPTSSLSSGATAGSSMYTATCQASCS
ASSAY NAME: GLP-1R Activation - cAMP Assay
Assay type: cell-based
STUDY CONDITIONS: cAMP increase in CHO cells stably expressing GLP-1R; each compound run on one of the two cAMP assays (Assay 1 or Assay 2, not specified)
Please reply with the bare figure in nM and do not write the unit itself.

Reference set (8 entries):
CC1(C)COC[C@H]1n1c(Cc2ccc(-c3nc(OCc4ccc(C#N)cc4)c(F)cc3F)cc2F)nc2ccc(C(=O)O)cc21: 0.115
COCCn1c(Cc2cc(C)c(-c3ccc(F)c(OCc4ccc(C#N)cc4F)n3)cc2Cl)nc2c(F)cc(C(=O)O)cc21: 7.14
C[C@H]1COC[C@H]1n1c(Cc2cc(F)c(-c3ccc(F)c(OCc4ccc(Cl)cc4F)n3)cc2F)nc2ccc(C(=O)O)cc21: 0.041
CC1(C)COC[C@H]1n1c(Cc2ccc(-c3ccc(F)c(OCc4ccc(Cl)cc4F)n3)cc2F)nc2ccc(C(=O)O)cc21: 0.159
CC1(C)COC[C@H]1n1c(Cc2cc(F)c(-c3ccnc(OCc4ccc(C(F)(F)F)cc4)n3)cc2F)nc2ccc(C(=O)O)cc21: 0.121
CO[C@@H](C)[C@H](C)n1c(Cc2cc(F)c(-c3cccc(OCc4ccc(Cl)cc4F)n3)cc2F)nc2ccc(C(=O)O)cc21: 2.29
COC[C@H]1COC[C@H]1n1c(Cc2cc(F)c(-c3ccc(F)c(OCc4ccc(Cl)cc4F)n3)cc2F)nc2ccc(C(=O)O)cc21: 0.038
CC1(C)COC[C@H]1n1c(Cc2cc(F)c(-c3cccc(OCc4ccncc4F)n3)cc2F)nc2ccc(C(=O)O)cc21: 0.139

Inquiry: Note down EC50 recorded for `COCCn1c(Cc2cc(F)c(-c3cc(OC)cc(OCc4ccc(C#N)cc4F)n3)cc2F)nc2ccc(C(=O)O)cc21`
Reply text: 20.8

Inquiry: Note down EC50 recorded for `CC1(C)COC[C@H]1n1c(Cc2cc(F)c(-c3ccc(Cl)c(OCc4ccc(C#N)cc4)n3)cc2F)nc2ccc(C(=O)O)cc21`
Reply text: 0.114

Inquiry: Note down EC50 recorded for `COCCn1c(Cc2cc(F)c(-c3cccc(OCc4cc(F)c(F)cc4F)n3)cc2F)nc2ccc(C(=O)O)cc21`
Reply text: 13.1

Inquiry: Note down EC50 recorded for `CC1(C)COC[C@H]1n1c(Cc2cc(F)c(-c3cccc(OCc4ccc(Cl)c(F)c4F)n3)cc2F)nc2ccc(C(=O)O)cc21`
Reply text: 0.282

Inquiry: Note down EC50 recorded for CC1(C)COC[C@@H]1n1c(Cc2cc(F)c(-c3cccc(OCc4ccc(Cl)cc4)n3)cc2F)nc2ccc(C(=O)O)cc21 (single isomer, unassigned) [Example 385B]
Reply text: 1.12

Inquiry: Note down EC50 recorded for `O=C(O)c1cc(F)c2nc(Cc3cc(F)c(-c4ncc(F)c(OCc5ccc(C(F)(F)F)cc5F)n4)cc3F)n(C[C@@H]3CCO3)c2c1`
Reply text: 0.174

Inquiry: Note down EC50 recorded for `CC1(C)COC[C@H]1n1c(Cc2c(F)cc(-c3cccc(OCc4ccc(C#N)cc4)n3)c(F)c2F)nc2c(F)cc(C(=O)O)cc21`
Reply text: 0.015

Inquiry: Note down EC50 recorded for `Cc1cc(Cc2nc3ccc(C(=O)O)cc3n2[C@@H]2COCC2(C)C)c(Cl)cc1-c1ccc(F)c(OCc2ccc(C#N)cc2)n1`
Reply text: 0.361

Inquiry: Note down EC50 recorded for `CC1(C)COC[C@H]1n1c(Cc2cc(F)c(-c3ccc(F)c(OCc4ccc(C#N)cc4)n3)cc2F)nc2ccc(C(=O)O)cc21`
Reply text: 0.032

Inquiry: Note down EC50 recorded for `CC1(C)COC[C@H]1n1c(Cc2c(F)cc(-c3cccc(OCc4ccc(C#N)cc4)n3)cc2F)nc2ccc(C(=O)O)cc21`
Reply text: 0.266

Inquiry: Note down EC50 recorded for `CO[C@H](C)Cn1c(Cc2cc(F)c(-c3cccc(OCc4ccc(-n5ccnn5)nc4)n3)cc2F)nc2c(F)cc(C(=O)O)cc21`
Reply text: 0.535

Inquiry: Note down EC50 recorded for `COCCn1c(Cc2cc(F)c(-c3cccc(OCc4ccc5nccn5c4)n3)cc2F)nc2ccc(C(=O)O)cc21`
Reply text: 49.9

Inquiry: Note down EC50 recorded for `CC1(C)COC[C@H]1n1c(Cc2cc(F)c(-c3cccc(OCc4ccc(C#N)cc4)n3)cc2F)nc2c(F)cc(C(=O)O)cc21`
Reply text: 0.056

Inquiry: Note down EC50 recorded for CO[C@H]1CCOC[C@H]1n1c(Cc2cc(F)c(-c3cccc(OCc4ccc(C#N)cc4F)n3)cc2F)nc2ccc(C(=O)O)cc21 (single isomer, unassigned) [Example 409]
Reply text: 0.291

Inquiry: Note down EC50 recorded for `CO[C@H](C)Cn1c(Cc2cc(F)c(-c3cccc(OCc4ccc(C#N)cc4F)n3)cc2F)nc2c(F)cc(C(=O)O)cc21`
Reply text: 1.21

Inquiry: Note down EC50 recorded for `CS(=O)(=O)N1Cc2ccc(COc3cccc(-c4cc(F)c(Cc5nc6c(F)cc(C(=O)O)cc6n5C[C@@H]5CCO5)cc4F)n3)cc2C1`
Reply text: 0.024

Inquiry: Note down EC50 recorded for `CC1(C)COC[C@H]1n1c(Cc2cc(F)c(-c3cccc(OCc4ccc(Cl)cc4)n3)cc2F)nc2c(F)cc(C(=O)O)cc21`
Reply text: 0.274
